Target: Voltage-gated inwardly rectifying potassium channel KCNH2 (Homo sapiens)
Sequence (Q12809 whole entry): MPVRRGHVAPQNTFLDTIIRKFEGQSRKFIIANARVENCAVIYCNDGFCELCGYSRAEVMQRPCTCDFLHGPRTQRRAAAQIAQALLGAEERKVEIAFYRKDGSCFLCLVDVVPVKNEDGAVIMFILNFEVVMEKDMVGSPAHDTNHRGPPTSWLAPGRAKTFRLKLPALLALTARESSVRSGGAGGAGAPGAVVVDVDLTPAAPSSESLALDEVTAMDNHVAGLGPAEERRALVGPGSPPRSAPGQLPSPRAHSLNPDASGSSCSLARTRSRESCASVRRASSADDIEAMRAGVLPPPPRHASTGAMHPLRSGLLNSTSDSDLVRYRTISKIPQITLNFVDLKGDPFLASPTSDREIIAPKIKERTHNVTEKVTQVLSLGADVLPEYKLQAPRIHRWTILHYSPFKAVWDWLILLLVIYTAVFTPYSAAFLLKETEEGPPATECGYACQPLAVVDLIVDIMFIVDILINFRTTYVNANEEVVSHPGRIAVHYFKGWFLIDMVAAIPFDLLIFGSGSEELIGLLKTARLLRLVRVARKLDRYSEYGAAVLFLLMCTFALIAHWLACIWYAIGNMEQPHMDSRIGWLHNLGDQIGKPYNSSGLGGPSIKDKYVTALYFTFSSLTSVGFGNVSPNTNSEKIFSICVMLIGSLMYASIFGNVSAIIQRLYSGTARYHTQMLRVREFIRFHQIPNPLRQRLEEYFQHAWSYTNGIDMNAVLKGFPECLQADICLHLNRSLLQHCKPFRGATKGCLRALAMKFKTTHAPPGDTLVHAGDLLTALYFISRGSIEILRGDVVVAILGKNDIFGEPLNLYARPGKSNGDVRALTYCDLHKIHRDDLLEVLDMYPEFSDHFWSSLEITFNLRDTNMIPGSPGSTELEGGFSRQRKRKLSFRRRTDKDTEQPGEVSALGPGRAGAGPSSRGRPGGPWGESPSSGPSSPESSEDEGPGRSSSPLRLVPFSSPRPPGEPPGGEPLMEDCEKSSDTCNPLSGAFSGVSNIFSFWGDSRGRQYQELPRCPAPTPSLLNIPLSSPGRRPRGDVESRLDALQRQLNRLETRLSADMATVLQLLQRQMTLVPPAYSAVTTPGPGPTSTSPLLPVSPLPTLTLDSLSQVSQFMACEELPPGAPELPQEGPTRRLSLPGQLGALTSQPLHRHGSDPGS
Experiment: Inhibition of hERG ion channel expressed in CHO cells by automated patch clamp electrophysiology method
pIC50: −log10 of the molar value.
property.name: pIC50

[[record]]
structure_as_smiles = "CC1=C(C(=O)O[C@H](C)c2ccccc2)C(c2ccc3c(cnn3C)c2)C(C(=O)O[C@H](C)c2ccccc2)=C(C)N1"
observed_result = "< 4.40"


###

Test: Volume of distribution at steady state in Sprague-Dawley rat at 5 mg/kg, iv
Type: ADME, organism-based
Conditions: in vivo, read-out: Vdss
property.name: Vd

[[record]]
structure_as_smiles = "CC1=C(C(=O)O[C@H](C)c2ccccc2)C(c2ccc3c(cnn3C)c2)C(C(=O)O[C@H](C)c2ccccc2)=C(C)N1"
property_name = "Vd"
observed_result = "3.81 L/kg"

